Target: T1, Formyl-Peptide Receptor 1 (UniProt P21462 1-350, limits assumed)
T1 sequence (looked up): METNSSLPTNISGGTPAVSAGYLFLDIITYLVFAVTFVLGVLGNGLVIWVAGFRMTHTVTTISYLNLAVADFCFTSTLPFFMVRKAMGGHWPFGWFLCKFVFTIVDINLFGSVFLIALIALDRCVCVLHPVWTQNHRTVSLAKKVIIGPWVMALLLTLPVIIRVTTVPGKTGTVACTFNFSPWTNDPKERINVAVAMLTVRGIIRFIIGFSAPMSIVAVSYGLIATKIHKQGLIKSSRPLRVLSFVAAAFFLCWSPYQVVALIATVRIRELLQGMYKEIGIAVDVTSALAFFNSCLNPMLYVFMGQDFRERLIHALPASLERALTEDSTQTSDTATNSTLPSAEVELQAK
Assay: cell-based or functional assay
Bridges are numbered along the chain shown (N, C = ends). [ ]: non-standard residue; d: D form.
measured-parameter: β-Arrestin IC50
State the result as a value with its unit after it.

Assign β-Arrestin IC50 to the following record: cyclo(YHACHG[dP]WTICYQK[dT]P) (disulfide 4-11; SMILES CC[C@H](C)[C@@H]1NC(=O)[C@H]([C@@H](C)O)NC(=O)[C@H](Cc2c[nH]c3ccccc23)NC(=O)[C@H]2CCCN2C(=O)CNC(=O)[C@H](Cc2c[nH]cn2)NC(=O)[C@@H]2CSSC[C@H](NC1=O)C(=O)N[C@@H](Cc1ccc(O)cc1)C(=O)N[C@@H](CCC(N)=O)C(=O)N[C@@H](CCCCN)C(=O)N[C@H]([C@H](C)O)C(=O)N1CCC[C@H]1C(=O)N[C@@H](Cc1ccc(O)cc1)C(=O)N[C@@H](Cc1c[nH]cn1)C(=O)N[C@@H](C)C(=O)N2) [cyclo(-Tyr-His-Ala-Cys-His-Gly-^DPro-Trp-Thr-Ile-Cys-Tyr-Gln-Lys-^DThr-Pro-)]
641 nM

These measurements were taken from patent US9957297B2.
